# target.system: 1-deoxy-D-xylulose 5-phosphate reductoisomerase (Escherichia coli (strain K12))
# Sequence (P45568 whole entry): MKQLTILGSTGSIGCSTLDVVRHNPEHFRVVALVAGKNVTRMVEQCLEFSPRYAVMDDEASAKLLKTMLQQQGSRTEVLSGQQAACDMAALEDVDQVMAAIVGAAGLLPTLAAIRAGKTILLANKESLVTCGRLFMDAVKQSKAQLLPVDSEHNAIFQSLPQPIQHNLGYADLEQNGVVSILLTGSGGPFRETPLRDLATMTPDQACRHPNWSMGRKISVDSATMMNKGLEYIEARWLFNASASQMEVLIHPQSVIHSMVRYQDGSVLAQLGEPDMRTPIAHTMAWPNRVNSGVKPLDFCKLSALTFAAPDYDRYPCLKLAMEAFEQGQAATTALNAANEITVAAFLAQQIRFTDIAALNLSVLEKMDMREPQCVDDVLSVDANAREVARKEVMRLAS
# assay.summary: DXR Inhibition Assay
# maps each entry to its pIC50
Convention used: pIC50 is expressed as -log10 of the molar concentration.

substance.smiles: O=c1cc(-c2ccc(O)c(O)c2)oc2cc(O)cc(O)c12
pIC50: 5.47
--
substance.smiles: O=c1c(O)c(-c2cc(O)c(O)c(O)c2)oc2cc(O)cc(O)c12
pIC50: 5.82

The reported value for "O=c1c(O)c(-c2ccc(O)c(O)c2)oc2cc(O)cc(O)c12" in terms of pIC50 is 5.72

The reported value for "O=c1cc(-c2ccccc2)oc2cc(O)c(O)c(O)c12" in terms of pIC50 is 5.66

The reported value for "O=c1c(O)c(-c2ccc(O)c(O)c2)oc2cc(O)ccc12" in terms of pIC50 is 5.46

Reference for the values: BindingDB's records for doi:10.1016/j.bioorg.2015.02.008
